protocol_description: Plasma concentrations after oral dosing (solution in apple juice) of human volunteers, Example 1A
Format: in vivo
condition_summary: human, plasma, po, 22.5 mg, subject 2 (76 kg); 22.5 mg oral; 2 h
measured_property: concentration at 2 h (ng/mL)
A number alone suffices; assume ng/mL.

Q: Looking for the measured concentration at 2 h of COc1cc2c(cc1OC)[C@H]1C[C@@H](O)[C@H](CC(C)C)CN1CC2 [(+)-α-dihydrotetrabenazine] , can you help?
Result: 40.2

----------
protocol_description: Plasma concentrations up to 7 hours after oral dosing of human volunteers, Example 1B
Type: in vivo
condition_summary: po, 7.5 mg, Example 1B subject 5 (99 kg), 7.5 mg oral, 3 h
measured_property: concentration at 3 h
Answers without a unit are incomplete; give the number and then its unit.

Q: For COc1cc2c(cc1OC)[C@H]1C[C@@H](O)[C@H](CC(C)C)CN1CC2 [(+)-α-dihydrotetrabenazine] , what is its reported concentration at 3 h?
Result: 5.84 ng/mL

----------
protocol_description: Plasma concentrations after oral dosing (solution in apple juice) of human volunteers, Example 1A
Format: in vivo
condition_summary: human, plasma, po, 7.5 mg, subject 3 (129 kg); 7.5 mg oral; 1 h
measured_property: concentration at 1 h
// unit must come after the numeric part

Q: I would be grateful if you could share the reported concentration at 1 h for COc1cc2c(cc1OC)[C@H]1C[C@@H](O)[C@H](CC(C)C)CN1CC2 [(+)-α-dihydrotetrabenazine] .
Result: 4.35 ng/mL

----------
protocol_description: Plasma concentrations after oral dosing (solution in apple juice) of human volunteers, Example 1A
Format: in vivo
condition_summary: human, plasma, po, 22.5 mg, subject 3 (129 kg); 22.5 mg oral; 1 h
measured_property: concentration at 1 h (ng/mL)
Answer format: numeric, ng/mL implied, no suffix.

Q: Consider the compound COc1cc2c(cc1OC)[C@H]1C[C@@H](O)[C@H](CC(C)C)CN1CC2 [(+)-α-dihydrotetrabenazine] and give its measured concentration at 1 h.
Result: 34.7

----------
protocol_description: Plasma concentrations after oral dosing (solution in apple juice) of human volunteers, Example 1A
Type: in vivo
condition_summary: human, plasma, po, 7.5 mg, subject 5 (91 kg); 7.5 mg oral; 3 h
measured_property: concentration at 3 h (ng/mL)
Form entry: value (ng/mL) — number only.

Q: Quick one: concentration at 3 h for COc1cc2c(cc1OC)[C@H]1C[C@@H](O)[C@H](CC(C)C)CN1CC2 [(+)-α-dihydrotetrabenazine] ?
Result: 11.2

----------
protocol_description: Plasma concentrations up to 7 hours after oral dosing of human volunteers, Example 1B
Format: in vivo
condition_summary: po, 7.5 mg, Example 1B subject 3 (76 kg), 7.5 mg oral, 2 h
measured_property: concentration at 2 h

Q: For the molecule COc1cc2c(cc1OC)[C@H]1C[C@@H](O)[C@H](CC(C)C)CN1CC2 [(+)-α-dihydrotetrabenazine] , what concentration at 2 h is on record?
Result: 12.8 ng/mL

----------
protocol_description: Plasma concentrations after oral dosing (solution in apple juice) of human volunteers, Example 1A
Type: in vivo
condition_summary: human, plasma, po, 7.5 mg, subject 1 (112 kg); 7.5 mg oral; 1.5 h
Description: (+)-α-Dihydrotetrabenazine in defined amounts was administered by oral dosing (as a solution in apple juice) to six human volunteers. […] At 60 minutes after drug administration, PET scans were initiated and these were stopped at 120 minutes after drug administration. The experiment was carried out at dosages of 7.5 mg, 15 mg and 22.5 mg. […]
measured_property: concentration at 1.5 h (ng/mL)
I only need the number, in ng/mL, no unit after it.

Q: Name the reported concentration at 1.5 h value associated with the compound COc1cc2c(cc1OC)[C@H]1C[C@@H](O)[C@H](CC(C)C)CN1CC2 [(+)-α-dihydrotetrabenazine]
Result: 2.39
